biological target: Dihydrofolate reductase (Mus musculus); assay: Inhibition of Dihydrofolate reductase in mouse L1210 cells; type: cell-based
Sequence (P00375 whole entry): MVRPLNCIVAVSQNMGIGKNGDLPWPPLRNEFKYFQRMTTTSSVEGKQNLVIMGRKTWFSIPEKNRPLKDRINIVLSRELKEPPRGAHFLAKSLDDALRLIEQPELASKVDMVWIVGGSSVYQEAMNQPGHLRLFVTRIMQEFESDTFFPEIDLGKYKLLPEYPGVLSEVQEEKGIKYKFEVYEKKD
Assay metric: log10 Ki (log10 of the value in pM)
Log scale reminder: Ki in pM, then log10 taken.

Field: example entries. Status: answers known.
Compound: CN(Cc1cnc2nc(N)nc(N)c2n1)c1ccc(C(=O)NC(CCC(=O)NCc2ccccc2)C(=O)O)cc1 (stereo not given)
log10 Ki: 0.56
//
Compound: CN(Cc1cnc2nc(N)nc(N)c2n1)c1ccc(C(=O)NC(CCC(=O)O)C(=O)NCC(=O)O)cc1 (stereo not given)
log10 Ki: 5.32
//
Compound: CN(Cc1cnc2nc(N)nc(N)c2n1)c1ccc(C(=O)NC(CCC(=O)N[C@@H](CC(=O)O)C(=O)O)C(=O)O)cc1 (stereo not given in full)
log10 Ki: 0.45
//
Compound: CN(Cc1cnc2nc(N)nc(N)c2n1)c1ccc(C(=O)NC(CCC(=O)NCC(=O)O)C(=O)O)cc1 (stereo not given)
log10 Ki: 0.46

Please turn your attention to the following entry.
Ask: Output measured log10 Ki for this item: CCCCCNC(=O)CCC(NC(=O)c1ccc(N(C)Cc2cnc3nc(N)nc(N)c3n2)cc1)C(=O)O (stereo not given)
Result: 0.54
